- experiment: xn = mol fraction of the nth substance listed, in the solute-free solvent
- recordedConditions: 303.15 K; x2 = 0.2
Each entry gets Not satisfied if its solubility (g/100 g solution) stays under 1, and Satisfied if its solubility (g/100 g solution) is 1 or above.

State whether the measured solubility (g/100 g solution) reaches 1, counting equality as reaching it, for CC1(C)SC2C(NC(=O)C(NC(=O)N3CCNC3=O)c3ccccc3)C(=O)N2C1C(=O)O (centres undefined) + CCO + CC(C)O
Not satisfied

State whether the measured solubility (g/100 g solution) reaches 1, counting equality as reaching it, for CCOC(=O)C1=CC2(CC)CCCN3CCc4c(n1c1ccccc41)C32 (centres undefined) + CCO + O
Not satisfied

State whether the measured solubility (g/100 g solution) reaches 1, counting equality as reaching it, for O=c1ccc2ccccc2o1 + CC(C)=O + O
Satisfied

State whether the measured solubility (g/100 g solution) reaches 1, counting equality as reaching it, for O=C(CC(=O)c1ccccc1)c1ccccc1 + CCO + O
Not satisfied

State whether the measured solubility (g/100 g solution) reaches 1, counting equality as reaching it, for CCCCN1CCCCC1C(=O)Nc1c(C)cccc1C.Cl.O (centres undefined) + CCO + O
Satisfied

State whether the measured solubility (g/100 g solution) reaches 1, counting equality as reaching it, for O=C(CC(=O)c1ccccc1)c1ccccc1 + CC(C)O + O
Not satisfied

State whether the measured solubility (g/100 g solution) reaches 1, counting equality as reaching it, for O=c1ccc2ccccc2o1 + CO + O
Satisfied

State whether the measured solubility (g/100 g solution) reaches 1, counting equality as reaching it, for CCCCN1CCCCC1C(=O)Nc1c(C)cccc1C.Cl.O (centres undefined) + CO + O
Satisfied

State whether the measured solubility (g/100 g solution) reaches 1, counting equality as reaching it, for O=C(CC(=O)c1ccccc1)c1ccccc1 + CO + O
Not satisfied

====

Please provide measured solubility (g/100 g solution) for the entries that follow.
- experiment: xn = mol fraction of the nth substance listed, in the solute-free solvent
- recordedConditions: 288.15 K; x2 = 0.2
Answer as a number with no unit attached.

State the recorded solubility (g/100 g solution) for this entry: O=C(CC(=O)c1ccccc1)c1ccccc1 + CCO + O
0.0595

State the recorded solubility (g/100 g solution) for this entry: O=C(CC(=O)c1ccccc1)c1ccccc1 + CO + O
0.0305

State the recorded solubility (g/100 g solution) for this entry: O=c1ccc2ccccc2o1 + CC(C)=O + O
6.75

State the recorded solubility (g/100 g solution) for this entry: O=C(CC(=O)c1ccccc1)c1ccccc1 + CC(C)O + O
0.14

State the recorded solubility (g/100 g solution) for this entry: CCOC(=O)C1=CC2(CC)CCCN3CCc4c(n1c1ccccc41)C32 (configuration not stated) + CCO + O
0.00816

State the recorded solubility (g/100 g solution) for this entry: O=c1ccc2ccccc2o1 + CO + O
0.385

State the recorded solubility (g/100 g solution) for this entry: CC1(C)SC2C(NC(=O)C(NC(=O)N3CCNC3=O)c3ccccc3)C(=O)N2C1C(=O)O (configuration not stated) + CCO + CC(C)O
0.129

====

- experiment: xn = mol fraction of the nth substance listed, in the solute-free solvent
- recordedConditions: 313.15 K; x2 = 0.2307
assayMetric: solubility (g/100 g solution)
Answer as a number with no unit attached.

State the recorded solubility (g/100 g solution) for this entry: COC(=O)C1=C(C)NC(C)=C(C(=O)OCC(C)C)C1c1ccccc1[N+](=O)[O-] (stereo not given) + CCCO + O
6.16

State the recorded solubility (g/100 g solution) for this entry: CC(=O)Nc1ccc(OC(=O)c2ccccc2OC(C)=O)cc1 + CC(C)O + O
0.285

State the recorded solubility (g/100 g solution) for this entry: O=c1[nH]cc(F)c(=O)[nH]1 + CCCO + C1CCOC1
0.373

State the recorded solubility (g/100 g solution) for this entry: O=[N+]([O-])c1cc[nH]n1 + CCCO + O
4.23

State the recorded solubility (g/100 g solution) for this entry: CS(=O)(=O)c1ccc(C(O)C(CF)NC(=O)C(Cl)Cl)cc1 (stereo not given) + CC(C)O + O
1.5

====

- experiment: xn = mol fraction of the nth substance listed, in the solute-free solvent
- recordedConditions: 283.15 K; x2 = 0.9
Each entry gets n if its solubility (g/100 g solution) stays under 0.6, and y if its solubility (g/100 g solution) is 0.6 or above.

State whether the measured solubility (g/100 g solution) reaches 0.6, counting equality as reaching it, for O=c1ccc2ccccc2o1 + CC(C)=O + O
y

State whether the measured solubility (g/100 g solution) reaches 0.6, counting equality as reaching it, for CC1(C)SC2C(NC(=O)C(NC(=O)N3CCNC3=O)c3ccccc3)C(=O)N2C1C(=O)O (stereo unspecified) + CCO + CC(C)O
y

State whether the measured solubility (g/100 g solution) reaches 0.6, counting equality as reaching it, for O=c1ccc2ccccc2o1 + CO + O
y

State whether the measured solubility (g/100 g solution) reaches 0.6, counting equality as reaching it, for O=c1[nH]cc(F)c(=O)[nH]1 + CO + C1CCOC1
n

State whether the measured solubility (g/100 g solution) reaches 0.6, counting equality as reaching it, for CC1(C)SC2C(NC(=O)C(NC(=O)N3CCNC3=O)c3ccccc3)C(=O)N2C1C(=O)O (stereo unspecified) + CO + CC(C)O
n

State whether the measured solubility (g/100 g solution) reaches 0.6, counting equality as reaching it, for CCOC(=O)C1=CC2(CC)CCCN3CCc4c(n1c1ccccc41)C32 (stereo unspecified) + CCO + O
n

====

Please provide measured solubility (g/100 g solution) for the entries that follow.
- experiment: xn = mol fraction of the nth substance listed, in the solute-free solvent
- recordedConditions: 323.15 K; x2 = 0.2
Answer as a number with no unit attached.

State the recorded solubility (g/100 g solution) for this entry: CCCCN1CCCCC1C(=O)Nc1c(C)cccc1C.Cl.O (centres undefined) + CCO + O
10.1

State the recorded solubility (g/100 g solution) for this entry: CCOC(=O)C1=CC2(CC)CCCN3CCc4c(n1c1ccccc41)C32 (centres undefined) + CCO + O
0.0683

State the recorded solubility (g/100 g solution) for this entry: CCCCN1CCCCC1C(=O)Nc1c(C)cccc1C.Cl.O (centres undefined) + CO + O
14.1

State the recorded solubility (g/100 g solution) for this entry: CC1(C)SC2C(NC(=O)C(NC(=O)N3CCNC3=O)c3ccccc3)C(=O)N2C1C(=O)O (centres undefined) + CCO + CC(C)O
0.59

====

Please provide measured solubility (g/100 g solution) for the entries that follow.
- experiment: xn = mol fraction of the nth substance listed, in the solute-free solvent
- recordedConditions: 278.15 K; x2 = 0.5454
Answer as a number with no unit attached.

State the recorded solubility (g/100 g solution) for this entry: COC(=O)C1=C(C)NC(C)=C(C(=O)OCC(C)C)C1c1ccccc1[N+](=O)[O-] (centres undefined) + CC(C)O + O
3.18

State the recorded solubility (g/100 g solution) for this entry: COC(=O)C1=C(C)NC(C)=C(C(=O)OCC(C)C)C1c1ccccc1[N+](=O)[O-] (centres undefined) + CCCO + O
2.47

State the recorded solubility (g/100 g solution) for this entry: CS(=O)(=O)c1ccc(C(O)C(CF)NC(=O)C(Cl)Cl)cc1 (centres undefined) + CC(C)O + O
0.308

State the recorded solubility (g/100 g solution) for this entry: CC(=O)Nc1ccc(OC(=O)c2ccccc2OC(C)=O)cc1 + CC(C)O + O
0.0663

====

Please provide measured solubility (g/100 g solution) for the entries that follow.
- experiment: xn = mol fraction of the nth substance listed, in the solute-free solvent
- recordedConditions: 308.15 K; x2 = 0.03225
Answer as a number with no unit attached.

State the recorded solubility (g/100 g solution) for this entry: O=[N+]([O-])c1cc[nH]n1 + CCCO + O
1.04

State the recorded solubility (g/100 g solution) for this entry: CS(=O)(=O)c1ccc(C(O)C(CF)NC(=O)C(Cl)Cl)cc1 (centres undefined) + CC(C)O + O
0.403

State the recorded solubility (g/100 g solution) for this entry: CC(=O)Nc1ccc(OC(=O)c2ccccc2OC(C)=O)cc1 + CC(C)O + O
0.0217

State the recorded solubility (g/100 g solution) for this entry: COC(=O)C1=C(C)NC(C)=C(C(=O)OCC(C)C)C1c1ccccc1[N+](=O)[O-] (centres undefined) + CCCO + O
0.526

====

- experiment: xn = mol fraction of the nth substance listed, in the solute-free solvent
- recordedConditions: 288.15 K; x2 = 0.06974
assayMetric: solubility (g/100 g solution)
Answer as a number with no unit attached.

State the recorded solubility (g/100 g solution) for this entry: CC(=O)Nc1ccc(OC(=O)c2ccccc2OC(C)=O)cc1 + CC(C)O + O
0.0142

State the recorded solubility (g/100 g solution) for this entry: O=[N+]([O-])c1cc[nH]n1 + CCCO + O
0.377

State the recorded solubility (g/100 g solution) for this entry: COC(=O)C1=C(C)NC(C)=C(C(=O)OCC(C)C)C1c1ccccc1[N+](=O)[O-] (stereo not given) + CCCO + O
0.806

State the recorded solubility (g/100 g solution) for this entry: COC(=O)C1=C(C)NC(C)=C(C(=O)OCC(C)C)C1c1ccccc1[N+](=O)[O-] (stereo not given) + CC(C)O + O
1.02

State the recorded solubility (g/100 g solution) for this entry: CS(=O)(=O)c1ccc(C(O)C(CF)NC(=O)C(Cl)Cl)cc1 (stereo not given) + CC(C)O + O
0.216

Where do these numbers come from? They come from the CheMixHub drug solubility set.
